- STUDY_TARGET: Adenosine receptor A1 (Rattus norvegicus)
- ASSAY_NOTES: Binding affinity towards the adenosine A1 receptor in cerebral cortices of Sprague-Dawley male rats using [3H]CHA as radioligand.
ATTRIBUTE_MEASURED: IC50 (µM)
Answers are plain numbers, in µM.

Below are worked cases with known answers.
In [3]: df
Out[3]:
                           structure_smiles  recorded_result
0            CCc1nnc2c(N3CCCC3)nc3ccccc3n12               10
1                    CCNc1nc2ccccc2n2cnnc12               29
2          CCN(CC)c1nc2cc(F)c(F)cc2n2cnnc12                5
3            CCc1nnc2c(N(CC)CC)nc3ccccc3n12              7.4
4               CCc1nnc2c(N)nc3cc(F)ccc3n12             0.58
5           c1ccc2c(c1)nc(N1CCCCC1)c1nncn12              100
6  CC(C)Nc1nc2ccc(Cl)cc2n2c(C(F)(F)C(F)(F)F)nnc12            0.024
7                CCN(CC)c1nc2ccccc2n2cnnc12               27
8              CCc1nnc2c(N)nc3ccc(Cl)cc3n12             0.11
9    CC(C)Nc1nc2ccc(F)cc2n2c(C(F)(F)F)nnc12            0.057

Record IC50 for all entries; do not skip any.
1. CCc1nnc2c(NC3CCCCC3)nc3ccc(Cl)cc3n12
2. Nc1nc2ccccc2n2cnnc12

1: 0.044; 2: 4.6

###

Protein target, amino acids: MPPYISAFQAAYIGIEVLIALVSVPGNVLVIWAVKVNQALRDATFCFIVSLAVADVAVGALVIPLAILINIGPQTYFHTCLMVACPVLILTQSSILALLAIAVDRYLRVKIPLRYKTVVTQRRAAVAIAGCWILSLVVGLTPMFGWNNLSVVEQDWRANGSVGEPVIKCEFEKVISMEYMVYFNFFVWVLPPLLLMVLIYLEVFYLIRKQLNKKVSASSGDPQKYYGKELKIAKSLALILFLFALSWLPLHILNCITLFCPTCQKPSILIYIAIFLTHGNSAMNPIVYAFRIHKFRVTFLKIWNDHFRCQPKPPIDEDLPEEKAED
ATTRIBUTE_MEASURED: pKi
Give bare numbers, as −log10 of the molar value.

Request the reported pKi associated with OC[C@H]1O[C@@H](n2cnc3c(Nc4ccccc4)ncnc32)[C@H](O)[C@@H]1O
8.52

###

Assign IC50 to each entry below.
- Species: Rattus norvegicus
- ASSAY_NOTES: Evaluated for Ca++ independent phosphodiesterase activity.
- Type: functional
Answers are plain numbers, in µM.

The cases that follow already have their IC50 on record.
>>> print(df.to_string())
                                   molecule  recorded_result
0        Nc1nc2ccc(Cl)cc2n2c(C(F)(F)F)nnc12                2
1            CCc1nnc2c(N(CC)CC)nc3ccccc3n12              3.7
2  COc1ccc(C2CNC(=O)C2)cc1OC1CCCC1 (configuration not stated)             0.25

Give IC50 for all molecules that follow.
1. CCNc1nc2cc(Cl)ccc2n2c(CC)nnc12
2. CCc1nnc2c(N)nc3cc(F)ccc3n12

1. 0.2
2. 40

Go through the list and state IC50 for each entry.
1. CC(C)Nc1nc2ccc(Cl)cc2n2c(C(F)(F)F)nnc12
2. CC(C)Cn1c(=O)n(C)c(=O)c2nc[nH]c21
3. CCc1nnc2c(NC(C)C)nc3ccc(Cl)cc3n12
4. c1ccc2c(c1)nc(N1CCNCC1)c1nncn12

1. 1
2. 3.5
3. 0.5
4. 7
